target: human Nav1.7 (Homo sapiens, UniProt Q15858); construct: host or cells: HEK293; test: Two pulse assay protocol, Nav1.7; type: cell-based; conditions: peak current, pulse 2 (state-dependent), read-out: percent inhibition hNav1.7, Pulse 2 (5 uM)
measure_name: inhibition at 5 µM

Answered cases to consult:
compound	inhibition at 5 µM
CC(C)Oc1ccc(-c2ccc3ncc(-c4ccc(Oc5ccccc5)cc4)n3c2)cc1 [Example C72]	> 90%
CC(C)Oc1ccc(-c2ccc3ncc(-c4ccc(C(C)C)cc4)n3c2)cc1 [Example C73]	50 to 90%
CS(=O)(=O)NC(=O)c1cc2ncc(-c3ccc(OC(F)(F)F)cc3)n2cc1-c1ccccc1 [Example C68]	< 50%
Cc1cc(-c2cnc3ccc(-c4ccc(OC(C)C)cc4)cn23)cnc1OC(C)C [Example C71]	> 90%

Problem: // lookup inhibition at 5 µM for CC(C)Oc1ccc(-c2cnc3ccc(-c4ccc(OC(C)C)c(F)c4)cn23)cc1 [Example C24]
Result: 50 to 90%

* * *

biological target: human Nav1.5 (late current) (Homo sapiens); construct: host or cells: HEK293; experiment: Nav1.5 Late Current Assay (QPatch HT whole-cell patch clamp, 30 nM ATX-II); type: cell-based; settings: HEK293 cells stably expressing human Nav1.5, pH 7.3, late current with 30 nM ATX-II, read-out: percent inhibition hNav1.5 Late (5 uM)
measure_name: inhibition at 5 min, 5 uM

// solved cases for inhibition at 5 min, 5 uM follow
molecule	measurement_target	inhibition at 5 min, 5 uM
Cc1cc2ncc(-c3ccc(C(C)(C)O)cc3)n2cc1-c1ccc(OC(C)C)cc1 [Example C56]	human Nav1.5 (late current) (Homo sapiens)	< 50%
CC(C)Oc1ccc(-c2cnc3ccc(-c4ccc(OC(C)C)nc4)cn23)cc1 [Example C12]	human Nav1.5 (late current) (Homo sapiens)	> 90%
CC(C)Oc1ccc(-c2cnc3ccc(-c4ccc(C5(N)CC5)cc4)cn23)cc1 [Example C15]	human Nav1.5 (late current) (Homo sapiens)	< 50%
CC(C)Oc1ccc(-c2cnc3ccc(-c4cnn(C5CC5)c4)cn23)cc1 [Example C17]	human Nav1.5 (late current) (Homo sapiens)	< 50%
CC(C)Oc1ccc(-c2cnc3ccc(-c4ccc(OC(F)F)cc4)cn23)cc1 [Example C4]	human Nav1.5 (late current) (Homo sapiens)	> 90%

Problem: I'd like to know its inhibition at 5 min, 5 uM. The molecule in question is CC(C)Oc1ccc(-c2ccc3ncc(-c4ccc(OC(C)C)nc4)n3c2)cc1 [Example C37]
Result: > 90%

* * *

biological target: human Nav1.6 (Homo sapiens, UniProt Q9UQD0); construct: host or cells: HEK293; assay: Two pulse assay protocol, Nav1.6; format: cell-based; settings: 5 uM; peak current, pulse 2 (state-dependent); read-out: percent inhibition hNav1.6, Pulse 2 (5 uM)
Documented inhibition at 5 µM across a set of compounds

compound	measure_name	result
Cc1c(-c2ccc(OC(C)C)cc2)ccc2ncc(-c3ccc(OC(C)C)cc3)n12 [Example C51]	inhibition at 5 µM	< 50%
CC(C)Oc1ccc(-c2ccc3ncc(-c4ccc(OC(C)(C)C)cc4)n3c2)cc1 [Example C32]	inhibition at 5 µM	> 90%
CC(C)Oc1ccc(-c2cnc3ccc(-c4ccc(OC(C)C)cc4F)cn23)cc1 [Example C23]	inhibition at 5 µM	< 50%
CC(C)Oc1ccc(-c2ccc3ncc(-c4ccc(OC(C)C)nc4F)n3c2)cc1 [Example C74]	inhibition at 5 µM	50 to 90%

Problem: # get_value(readout='inhibition at 5 µM', item= CC(C)Oc1ccc(-c2cnc3ccc(-c4ccc(OC(C)C)nc4)cn23)cc1 [Example C12] )
Result: > 90%

Problem: And then Cc1cc2ncc(-c3ccc(OC(C)(C)C)nc3)n2cc1-c1ccc(OC(C)C)cc1 [Example C84] , what is it?
Result: 50 to 90%

Problem: Try this compound next: CC(C)Oc1ccc(-c2cnc3ccc(-c4ccc(OC(C)C)c(F)c4)cn23)cc1 [Example C24]
Result: > 90%

Problem: Also CC(C)Oc1ccc(-c2ccc3ncc(-c4ccc(C(C)(C)C)cc4)n3c2)cc1 [Example C87] , if possible.
Result: > 90%

* * *

inhibition at 5 µM listing for selected compounds.
biological target: human Nav1.6 (Homo sapiens, UniProt Q9UQD0); construct: host or cells: HEK293; experiment: Two pulse assay protocol, Nav1.6; type: cell-based; details: 5 uM; peak current, pulse 2 (state-dependent); read-out: percent inhibition hNav1.6, Pulse 2 (5 uM)

Problem: Item Cc1cc2ncc(-c3ccc(OC(C)C)cc3)n2cc1-c1ccc(OC(C)C)c(F)c1 [Example C80] has what recorded inhibition at 5 µM?
Result: < 50%

Problem: Further, for Cc1cc2ncc(-c3ccc(OC(C)(C)C)cc3)n2nc1-c1ccc(OC(C)C)cc1 [Example D23] ?
Result: 50 to 90%

Problem: Next entry: CC(C)Oc1ccc(-c2ccc3ncc(-c4ccc(C(C)C)cc4)n3c2)cc1 [Example C73]
Result: > 90%

Problem: # repeat for CC(C)Oc1ccc(-c2ccc3ncc(-c4ccc(OC(C)(C)C)nc4)n3c2)cc1 [Example C90]
Result: > 90%

Problem: Input CC(C)Oc1ccc(-c2ccc3ncc(-c4ccc(C(C)(C)C)nc4)n3c2)cc1 [Example C89]
Result: > 90%

Problem: What do you get for CC(C)(C)Oc1ccc(-c2ccc3ncc(-c4ccc(OC(C)(C)C)cc4)n3c2)cc1 [Example C82] ?
Result: > 90%

* * *

Each entry below carries its recorded inhibition at 5 µM.
target: human Nav1.8 (Homo sapiens); construct: host or cells: HEK293; test: Two pulse assay protocol, Nav1.8; type: cell-based; conditions: peak current, pulse 2 (state-dependent), read-out: percent inhibition hNav1.8, Pulse 2 (5 uM)
Sequence (Q9Y5Y9 whole entry): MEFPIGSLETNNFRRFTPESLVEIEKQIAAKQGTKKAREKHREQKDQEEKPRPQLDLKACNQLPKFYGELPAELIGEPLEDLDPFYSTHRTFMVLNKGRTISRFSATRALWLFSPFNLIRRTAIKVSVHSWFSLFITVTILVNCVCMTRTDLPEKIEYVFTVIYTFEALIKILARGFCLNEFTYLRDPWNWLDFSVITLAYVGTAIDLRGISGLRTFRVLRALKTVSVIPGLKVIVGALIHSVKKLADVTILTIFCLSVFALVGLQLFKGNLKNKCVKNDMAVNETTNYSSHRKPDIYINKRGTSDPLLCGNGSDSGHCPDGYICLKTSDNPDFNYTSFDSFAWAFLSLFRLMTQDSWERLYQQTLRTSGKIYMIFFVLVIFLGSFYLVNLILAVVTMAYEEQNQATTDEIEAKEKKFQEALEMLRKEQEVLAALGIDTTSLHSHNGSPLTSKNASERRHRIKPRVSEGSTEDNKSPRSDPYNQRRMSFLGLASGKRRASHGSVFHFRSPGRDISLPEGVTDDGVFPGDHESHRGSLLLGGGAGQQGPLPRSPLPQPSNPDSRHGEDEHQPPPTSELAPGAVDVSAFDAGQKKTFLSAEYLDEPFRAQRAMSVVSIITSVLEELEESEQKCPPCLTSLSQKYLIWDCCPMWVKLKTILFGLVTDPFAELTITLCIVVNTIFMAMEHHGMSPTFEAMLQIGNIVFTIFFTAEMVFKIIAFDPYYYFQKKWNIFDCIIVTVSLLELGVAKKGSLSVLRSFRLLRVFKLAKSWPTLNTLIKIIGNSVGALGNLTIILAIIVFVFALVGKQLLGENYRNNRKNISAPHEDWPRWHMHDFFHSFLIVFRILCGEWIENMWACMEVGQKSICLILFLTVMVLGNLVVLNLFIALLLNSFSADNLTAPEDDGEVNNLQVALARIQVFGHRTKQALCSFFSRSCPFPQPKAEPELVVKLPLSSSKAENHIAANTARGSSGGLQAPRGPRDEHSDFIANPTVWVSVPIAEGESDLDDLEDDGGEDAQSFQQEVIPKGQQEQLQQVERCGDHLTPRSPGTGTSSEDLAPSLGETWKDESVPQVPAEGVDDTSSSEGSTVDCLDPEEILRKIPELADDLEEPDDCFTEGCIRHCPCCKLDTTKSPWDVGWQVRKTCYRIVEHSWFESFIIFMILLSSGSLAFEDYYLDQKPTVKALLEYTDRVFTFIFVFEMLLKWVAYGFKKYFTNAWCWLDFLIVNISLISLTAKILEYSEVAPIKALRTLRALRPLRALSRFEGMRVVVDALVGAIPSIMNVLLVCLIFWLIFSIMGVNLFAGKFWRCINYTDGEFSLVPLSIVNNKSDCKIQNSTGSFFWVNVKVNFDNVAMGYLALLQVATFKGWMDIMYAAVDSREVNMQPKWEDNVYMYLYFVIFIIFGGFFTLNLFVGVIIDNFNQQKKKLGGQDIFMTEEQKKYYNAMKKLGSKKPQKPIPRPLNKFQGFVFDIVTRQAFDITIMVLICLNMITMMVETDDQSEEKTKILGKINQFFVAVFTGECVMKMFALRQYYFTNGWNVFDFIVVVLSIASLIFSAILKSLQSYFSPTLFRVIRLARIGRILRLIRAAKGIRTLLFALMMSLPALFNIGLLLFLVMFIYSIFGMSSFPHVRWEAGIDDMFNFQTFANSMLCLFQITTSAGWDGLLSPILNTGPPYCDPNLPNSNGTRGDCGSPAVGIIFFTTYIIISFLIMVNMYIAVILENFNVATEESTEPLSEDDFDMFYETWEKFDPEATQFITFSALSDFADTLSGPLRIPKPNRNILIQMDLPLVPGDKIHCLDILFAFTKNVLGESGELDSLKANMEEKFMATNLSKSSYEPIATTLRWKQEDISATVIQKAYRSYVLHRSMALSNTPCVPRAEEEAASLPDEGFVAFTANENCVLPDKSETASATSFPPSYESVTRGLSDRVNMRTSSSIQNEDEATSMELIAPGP

Sample records with inhibition at 5 µM:
chemical_structure	measure_name	result
CC(C)Oc1ccc(-c2ccc3ncc(-c4ccc(OC(C)C)nc4)n3c2)cc1	inhibition at 5 µM	50 to 90%
COc1cc(OC)cc(-c2cnc3ccc(-c4ccc(OC(F)(F)F)cc4)cn23)c1	inhibition at 5 µM	< 50%
CS(=O)(=O)NC(=O)c1ccn2c(-c3ccc(OC(F)(F)F)cc3)cnc2c1	inhibition at 5 µM	< 50%
CS(=O)(=O)NC(=O)c1cc2ncc(-c3ccc(OC(F)(F)F)cc3)n2cc1-c1ccc(OC(F)(F)F)cc1	inhibition at 5 µM	< 50%

Problem: Which measured inhibition at 5 µM belongs to `COc1cc(OC)cc(-c2ccc3ncc(-c4ccc(OC(F)(F)F)cc4)n3c2)c1` , tested on human Nav1.8 (Homo sapiens)?
Result: 50 to 90%

Problem: Again, but for `CS(=O)(=O)NC(=O)c1cc2ncc(-c3ccc(OC(F)(F)F)cc3)n2cc1-c1ccccc1`
Result: < 50%

* * *

molecular target: human Nav1.5 (pulse 2, state-dependent inhibition) (Homo sapiens); construct: host or cells: HEK293; assay: Two pulse assay protocol, Nav1.5; format: cell-based; conditions: HEK293 cells stably expressing human Nav1.5, pH 7.3, peak current, pulse 2 (state-dependent), read-out: percent inhibition hNav1.5, Pulse 2 (5 uM)
Sequence (Q14524 whole entry): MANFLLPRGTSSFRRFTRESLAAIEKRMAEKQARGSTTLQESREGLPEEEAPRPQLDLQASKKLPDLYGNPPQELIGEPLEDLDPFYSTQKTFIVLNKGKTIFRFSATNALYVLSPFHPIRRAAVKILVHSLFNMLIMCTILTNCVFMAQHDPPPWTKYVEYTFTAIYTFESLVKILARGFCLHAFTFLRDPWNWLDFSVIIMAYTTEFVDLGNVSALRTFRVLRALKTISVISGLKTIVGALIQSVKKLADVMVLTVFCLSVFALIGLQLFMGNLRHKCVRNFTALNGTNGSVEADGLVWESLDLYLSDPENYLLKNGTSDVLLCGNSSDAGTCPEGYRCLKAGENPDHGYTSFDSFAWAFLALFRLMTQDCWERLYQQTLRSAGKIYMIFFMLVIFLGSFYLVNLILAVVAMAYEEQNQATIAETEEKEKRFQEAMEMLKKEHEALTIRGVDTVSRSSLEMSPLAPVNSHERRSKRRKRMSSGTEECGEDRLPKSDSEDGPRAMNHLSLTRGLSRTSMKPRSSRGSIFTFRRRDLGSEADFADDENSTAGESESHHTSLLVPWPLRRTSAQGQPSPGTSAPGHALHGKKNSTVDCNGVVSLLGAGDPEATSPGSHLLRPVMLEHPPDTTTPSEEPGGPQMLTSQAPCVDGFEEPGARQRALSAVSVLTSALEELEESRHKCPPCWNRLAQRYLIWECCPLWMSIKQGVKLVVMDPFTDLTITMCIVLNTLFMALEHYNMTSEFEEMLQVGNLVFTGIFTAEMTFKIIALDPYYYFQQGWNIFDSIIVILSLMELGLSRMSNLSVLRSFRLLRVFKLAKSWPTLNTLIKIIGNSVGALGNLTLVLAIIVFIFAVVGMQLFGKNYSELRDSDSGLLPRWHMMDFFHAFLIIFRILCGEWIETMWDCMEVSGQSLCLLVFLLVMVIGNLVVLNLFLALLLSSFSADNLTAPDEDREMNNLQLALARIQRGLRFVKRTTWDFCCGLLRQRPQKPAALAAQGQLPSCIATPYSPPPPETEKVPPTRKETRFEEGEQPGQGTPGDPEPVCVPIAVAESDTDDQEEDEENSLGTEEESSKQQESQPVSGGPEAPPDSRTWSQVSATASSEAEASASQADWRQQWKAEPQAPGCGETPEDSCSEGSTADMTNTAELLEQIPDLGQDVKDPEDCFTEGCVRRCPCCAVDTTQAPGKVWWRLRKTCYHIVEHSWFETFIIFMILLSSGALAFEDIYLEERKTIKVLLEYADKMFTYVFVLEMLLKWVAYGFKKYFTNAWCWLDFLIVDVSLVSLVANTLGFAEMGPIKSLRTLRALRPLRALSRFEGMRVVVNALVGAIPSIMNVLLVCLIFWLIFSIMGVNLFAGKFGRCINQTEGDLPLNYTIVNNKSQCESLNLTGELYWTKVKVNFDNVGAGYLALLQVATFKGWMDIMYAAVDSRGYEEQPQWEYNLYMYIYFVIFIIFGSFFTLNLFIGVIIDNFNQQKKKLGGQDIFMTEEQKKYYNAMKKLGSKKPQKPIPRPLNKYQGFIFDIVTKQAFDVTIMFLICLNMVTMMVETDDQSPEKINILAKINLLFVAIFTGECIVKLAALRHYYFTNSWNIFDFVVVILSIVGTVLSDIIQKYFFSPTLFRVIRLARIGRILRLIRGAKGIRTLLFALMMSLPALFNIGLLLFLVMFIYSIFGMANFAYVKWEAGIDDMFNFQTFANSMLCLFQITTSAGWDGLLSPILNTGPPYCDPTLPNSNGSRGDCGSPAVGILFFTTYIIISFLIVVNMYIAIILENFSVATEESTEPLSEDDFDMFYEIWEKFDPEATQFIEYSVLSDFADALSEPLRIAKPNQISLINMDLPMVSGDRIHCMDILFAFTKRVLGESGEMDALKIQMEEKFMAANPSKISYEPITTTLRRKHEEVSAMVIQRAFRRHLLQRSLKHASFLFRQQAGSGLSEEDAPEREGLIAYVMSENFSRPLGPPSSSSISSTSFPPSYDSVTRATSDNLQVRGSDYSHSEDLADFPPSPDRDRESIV
measure_name: inhibition at 5 min, 5 µM

compound	measurement_target	measure_name	result
CS(=O)(=O)NC(=O)c1ccn2c(-c3ccc(OC(F)(F)F)cc3)cnc2c1 [Example C66]	human Nav1.5 (pulse 2, state-dependent inhibition) (Homo sapiens)	inhibition at 5 min, 5 µM	< 50%
CC(C)Oc1ccc(-c2ccc3ncc(-c4ccc(C(C)C)cc4)n3c2)cc1 [Example C73]	human Nav1.5 (pulse 2, state-dependent inhibition) (Homo sapiens)	inhibition at 5 min, 5 µM	> 90%
CC(C)Oc1ccc(-c2ccc3ncc(-c4ccc(OC(C)(C)C)nc4)n3c2)cc1 [Example C90]	human Nav1.5 (pulse 2, state-dependent inhibition) (Homo sapiens)	inhibition at 5 min, 5 µM	> 90%
CC(C)Oc1ccc(-c2ccc3ncc(-c4ccc(C(C)(C)C)nc4)n3c2)cc1 [Example C89]	human Nav1.5 (pulse 2, state-dependent inhibition) (Homo sapiens)	inhibition at 5 min, 5 µM	50 to 90%
CS(=O)(=O)NC(=O)c1cc2ncc(-c3ccc(OC(F)(F)F)cc3)n2cc1-c1ccccc1 [Example C68]	human Nav1.5 (pulse 2, state-dependent inhibition) (Homo sapiens)	inhibition at 5 min, 5 µM	< 50%
CC(C)Oc1ccc(-c2ccc3ncc(-c4ccc(C(C)(C)C)cc4)n3c2)cc1 [Example C87]	human Nav1.5 (pulse 2, state-dependent inhibition) (Homo sapiens)	inhibition at 5 min, 5 µM	> 90%
Cc1cc(-c2cnc3ccc(-c4ccc(OC(C)C)cc4)cn23)cnc1OC(C)C [Example C71]	human Nav1.5 (pulse 2, state-dependent inhibition) (Homo sapiens)	inhibition at 5 min, 5 µM	> 90%
CC(C)Oc1ccc(-c2ccc3ncc(-c4ccc(Oc5ccccc5)cc4)n3c2)cc1 [Example C72]	human Nav1.5 (pulse 2, state-dependent inhibition) (Homo sapiens)	inhibition at 5 min, 5 µM	50 to 90%
CS(=O)(=O)NC(=O)c1cc2ncc(-c3ccc(OC(F)(F)F)cc3)n2cc1-c1ccc(OC(F)(F)F)cc1 [Example C67]	human Nav1.5 (pulse 2, state-dependent inhibition) (Homo sapiens)	inhibition at 5 min, 5 µM	< 50%

With those in mind, consider the next compound.
Problem: Field: inhibition at 5 min, 5 µM (human Nav1.5 (pulse 2, state-dependent inhibition) (Homo sapiens)). Entry: CC(C)Oc1ccc(-c2cnc3ccc(-c4ccc(OC(C)C)c(F)c4)cn23)cc1 [Example C24]
Result: > 90%

Reference for the values: patent US20230303569A1
